- Test system: HOP-62
- experimental protocol: Antiproliferative activity against human HOP62 cells by SRB assay
- Format: functional
GI50 values for the molecules below.
Hey, just the number and the unit after it is fine.

Consider the reported GI50 for these molecules:
O=C(/C=C/c1cn(C(/C=C/c2ccccc2)Cc2ccccc2)nn1)NO (centres undefined) : 1.44 µM
CC(C)C(/C=C/c1ccccc1)n1cc(/C=C/C(=O)NO)nn1 (centres undefined) : 1.24 µM
O=C(/C=C/c1ccc(CN(CCO)CCc2c[nH]c3ccccc23)cc1)NO : 0.502 µM

Please examine the following record next.
Kindly note: HOP-62, CC(/C=C/c1ccccc1)n1cc(/C=C/C(=O)NO)nn1 (centres undefined) , GI50 value reported: 1.34 µM

###

- System: SF-295
- experimental protocol: Antiproliferative activity against human SF295 cells by SRB assay
- Assay type: functional
Listing: GI50 of selected compounds
# number only, unit nM dropped from output

Previously resolved entries follow.
CC(/C=C/c1ccccc1)n1cc(/C=C/C(=O)NO)nn1 (centres undefined) : 1060
O=C(/C=C/c1cn(C(/C=C/c2ccccc2)Cc2ccccc2)nn1)NO (centres undefined) : 291
CC(C)C(/C=C/c1ccccc1)n1cc(/C=C/C(=O)NO)nn1 (centres undefined) : 1470

Please find the next compound below.
Reported GI50 for `O=C(/C=C/c1ccc(CN(CCO)CCc2c[nH]c3ccccc23)cc1)NO` was 743

###

- Test system: NCI-H23
- experimental protocol: Cytotoxicity against human NCI-H23 cells
- Assay type: cell-based
Property: LC50; scope: individual molecules
# output: bare number, implied unit µM

CC(C)C(/C=C/c1ccccc1)n1cc(/C=C/C(=O)NO)nn1 (centres undefined) : 12.6
O=C(/C=C/c1cn(C(/C=C/c2ccccc2)Cc2ccccc2)nn1)NO (centres undefined) : 8.68

Could you now look at the following molecule, please?
Entry CC(/C=C/c1ccccc1)n1cc(/C=C/C(=O)NO)nn1 (centres undefined) ; LC50 = 6.61

###

- Test system: UACC-257
- experimental protocol: Cytotoxicity against human UACC257 cells
- Type: cell-based
property measured: LC50 (µM)
Return type: number; implicit unit µM.

CC(C)C(/C=C/c1ccccc1)n1cc(/C=C/C(=O)NO)nn1 (centres undefined) : 88.3

Form: compound = O=C(/C=C/c1cn(C(/C=C/c2ccccc2)Cc2ccccc2)nn1)NO (centres undefined) ; LC50 = 93.7

Documented LC50 of `O=C(/C=C/c1ccc(CN(CCO)CCc2c[nH]c3ccccc23)cc1)NO` : 44.8

###

- System: SK-OV-3
- experimental protocol: Antiproliferative activity against human SKOV3 cells by SRB assay
- Format: functional
# GI50 per entry
Report as a plain number; the unit nM is understood.

Looking up O=C(/C=C/c1cn(C(/C=C/c2ccccc2)Cc2ccccc2)nn1)NO (centres undefined) , I see its GI50 listed as 1980

# GI50 of `O=C(/C=C/c1ccc(CN(CCO)CCc2c[nH]c3ccccc23)cc1)NO` = 524

Entry CC(/C=C/c1ccccc1)n1cc(/C=C/C(=O)NO)nn1 (centres undefined) — recorded GI50 = 1170

The molecule listed as CC(C)C(/C=C/c1ccccc1)n1cc(/C=C/C(=O)NO)nn1 (centres undefined) has a reported GI50 of 1490

###

- Tested on: SF-295
- experimental protocol: Cytotoxicity against human SF295 cells
- Assay type: cell-based
property measured: LC50 (µM)
Write down the numeric answer in µM and omit the unit.

Item: O=C(/C=C/c1cn(C(/C=C/c2ccccc2)Cc2ccccc2)nn1)NO (centres undefined) | LC50: 6.56

Per the records, this molecule ( `O=C(/C=C/c1ccc(CN(CCO)CCc2c[nH]c3ccccc23)cc1)NO` ) has LC50 equal to 6.91

So for CC(C)C(/C=C/c1ccccc1)n1cc(/C=C/C(=O)NO)nn1 (centres undefined) , the logged LC50 turned out to be 58.3

###

- Tested on: A498
- experimental protocol: Antiproliferative activity against human A498 cells by SRB assay
- Type: functional
property measured: GI50 (nM)
# output: bare number, implied unit nM

Solved cases below.
O=C(/C=C/c1cn(C(/C=C/c2ccccc2)Cc2ccccc2)nn1)NO (centres undefined) : 1160
O=C(/C=C/c1ccc(CN(CCO)CCc2c[nH]c3ccccc23)cc1)NO [DACINOSTAT] : 1110
CC(/C=C/c1ccccc1)n1cc(/C=C/C(=O)NO)nn1 (centres undefined) : 472

// recorded GI50 for CC(C)C(/C=C/c1ccccc1)n1cc(/C=C/C(=O)NO)nn1 (centres undefined) : 1510

###

- System: SK-OV-3
- experimental protocol: Cytotoxicity against human SKOV3 cells
- Type: cell-based
property measured: LC50
Answers without a unit are incomplete; give the number and then its unit.

Worked set:
O=C(/C=C/c1ccc(CN(CCO)CCc2c[nH]c3ccccc23)cc1)NO [DACINOSTAT] : 28.5 µM
CC(/C=C/c1ccccc1)n1cc(/C=C/C(=O)NO)nn1 (centres undefined) : 21.8 µM
O=C(/C=C/c1cn(C(/C=C/c2ccccc2)Cc2ccccc2)nn1)NO (centres undefined) : 13.3 µM

Summary line: CC(C)C(/C=C/c1ccccc1)n1cc(/C=C/C(=O)NO)nn1 (centres undefined) , SK-OV-3, reported LC50 = 27.8 µM

###

- Tested on: UO-31
- experimental protocol: Cytotoxicity against human UO31 cells
- Assay type: cell-based
LC50 by entry:
// return numeric value only (unit: µM, not printed)

Sample records with LC50:
O=C(/C=C/c1cn(C(/C=C/c2ccccc2)Cc2ccccc2)nn1)NO (centres undefined) : 6.57
CC(C)C(/C=C/c1ccccc1)n1cc(/C=C/C(=O)NO)nn1 (centres undefined) : 40.9
O=C(/C=C/c1ccc(CN(CCO)CCc2c[nH]c3ccccc23)cc1)NO : 52.8

LC50 recorded for this compound, CC(/C=C/c1ccccc1)n1cc(/C=C/C(=O)NO)nn1 (centres undefined) , is 66.7

###

In this section, each of the molecules is paired with its reported LC50.
- Test system: NCI-H460
- experimental protocol: Cytotoxicity against human NCI-H460 cells
- Format: cell-based
The figure you give is taken to be in µM; do not add the unit.

Below: 2 molecules and their reported LC50.
CC(/C=C/c1ccccc1)n1cc(/C=C/C(=O)NO)nn1 (centres undefined) : 42.7
CC(C)C(/C=C/c1ccccc1)n1cc(/C=C/C(=O)NO)nn1 (centres undefined) : 42.9

Query O=C(/C=C/c1cn(C(/C=C/c2ccccc2)Cc2ccccc2)nn1)NO (centres undefined) yields LC50 of 27.2

###

Entries and their measured LC50 follow.
- Tested on: Malme-3M
- experimental protocol: Cytotoxicity against human MALME-3M cells
- Format: cell-based

Some solved entries appear below for comparison.
O=C(/C=C/c1ccc(CN(CCO)CCc2c[nH]c3ccccc23)cc1)NO : 82 µM
CC(/C=C/c1ccccc1)n1cc(/C=C/C(=O)NO)nn1 (centres undefined) : 51.9 µM
O=C(/C=C/c1cn(C(/C=C/c2ccccc2)Cc2ccccc2)nn1)NO (centres undefined) : 28.6 µM

In the following, a different compound is considered.
LC50 reading for CC(C)C(/C=C/c1ccccc1)n1cc(/C=C/C(=O)NO)nn1 (centres undefined) : 68.4 µM

###

- Test system: SNB-19
- experimental protocol: Cytotoxicity against human SNB19 cells
- Type: cell-based
property measured: LC50 (µM)
Kindly answer with a numeric value in µM, unit omitted.

Answered cases to consult:
O=C(/C=C/c1ccc(CN(CCO)CCc2c[nH]c3ccccc23)cc1)NO : 31.7
CC(/C=C/c1ccccc1)n1cc(/C=C/C(=O)NO)nn1 (centres undefined) : 37.6
O=C(/C=C/c1cn(C(/C=C/c2ccccc2)Cc2ccccc2)nn1)NO (centres undefined) : 18.8

What the record says about CC(C)C(/C=C/c1ccccc1)n1cc(/C=C/C(=O)NO)nn1 (centres undefined) : LC50 is 66.6

###

The compounds listed here are annotated with their LC50.
- Tested on: A498
- experimental protocol: Cytotoxicity against human A498 cells
- Type: cell-based
Numeric only. Scale: µM

Solved cases (3 shown):
O=C(/C=C/c1cn(C(/C=C/c2ccccc2)Cc2ccccc2)nn1)NO (centres undefined) : 5.46
CC(C)C(/C=C/c1ccccc1)n1cc(/C=C/C(=O)NO)nn1 (centres undefined) : 8.63
CC(/C=C/c1ccccc1)n1cc(/C=C/C(=O)NO)nn1 (centres undefined) : 4.83

The recorded LC50 for `O=C(/C=C/c1ccc(CN(CCO)CCc2c[nH]c3ccccc23)cc1)NO` is 5.88

###

- System: LOX IMVI
- experimental protocol: Antiproliferative activity against human LOXIMVI cells by SRB assay
- Type: functional
property measured: GI50 (µM)
Report as a plain number; the unit µM is understood.

Worked cases, answers included:
CC(C)C(/C=C/c1ccccc1)n1cc(/C=C/C(=O)NO)nn1 (centres undefined) : 1.18
O=C(/C=C/c1cn(C(/C=C/c2ccccc2)Cc2ccccc2)nn1)NO (centres undefined) : 0.521
CC(/C=C/c1ccccc1)n1cc(/C=C/C(=O)NO)nn1 (centres undefined) : 0.438

Then there is this compound:
Note to self: GI50 recorded for `O=C(/C=C/c1ccc(CN(CCO)CCc2c[nH]c3ccccc23)cc1)NO` was 1.08
